# assay_name: PAX8 transcriptional activity inhibition in RMG-I – RMG-I cells, luciferase, single concentration, primary screen (AID 652154);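 further: luciferase light reporting Pax8 driven TPO promoter activity; plate controls were median of neutral control wells for no effect and mitoxantrone controls for full effect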
# setup_conditions: RMG-I TPO-luciferase reporter, SteadyGlo, 24 h; at 12.6 µM; active compounds read high
About 4,200 (1.2%) of roughly 360,000 compounds were called active. Only a selection was taken, and actives are over-represented in it overall.
recorded_endpoint: inhibition

# annotated cases, reported inhibition shown
CS(=O)(=O)N1CCc2cc(C(=O)Nc3ccccc3)ccc21	-94% (inactive)
CN(c1cccc(NC(=O)c2ccc(CN3CCc4ccccc4C3)cc2)c1)S(C)(=O)=O	72.6% (active)
CC(C)C#Cc1ccc2c(c1)O[C@@H](CN(C)C(=O)NC(C)C)[C@H](C)CN([C@H](C)CO)S2(=O)=O	-13.2% (inactive)
COc1ccc(S(=O)(=O)N2CCCCN3[C@@H](CO)[C@@H](c4ccc(C#CCC(C)C)cc4)[C@@H]3C2)cc1	46.7% (inactive)
C[C@@H](O)C#Cc1ccc([C@@H]2[C@H]3CN(S(=O)(=O)c4ccccc4)CCCCN3[C@H]2CO)cc1	-13.8% (inactive)

Provide reported inhibition for each item, in the same order as listed.
1. COc1ccccc1-n1cn[nH]c1=S
2. CCCC#Cc1ccc([C@H]2[C@@H](CO)N3CCCCN(S(=O)(=O)CC)C[C@H]23)cc1
3. Cn1c(=O)[nH]c(=O)c2c1nc(N1CCN(C(c3ccccc3)c3ccccc3)CC1)n2CCO
4. COc1ccc(S(=O)(=O)N2CCCCN3[C@H](C2)[C@H](c2ccc(C#CCC(C)C)cc2)[C@@H]3CO)cc1

Solution:
1. 8.11% (inactive)
2. 6.07% (inactive)
3. 84.2% (active)
4. 18.7% (inactive)

Provide reported inhibition for each item, in the same order as listed.
1. CCCNC(=O)Nc1ccc2c(c1)OC[C@@H](C)N(CCC)C[C@H](C)[C@@H](OC)CN(C)C2=O
2. CC1CCN(c2nc3c(c(=O)[nH]c(=O)n3C)n2CCCc2ccccc2)CC1
3. C=C(C)Cn1c(N2CCCC2)nc2c1c(=O)[nH]c(=O)n2C
4. COc1cccc(C#Cc2ccc([C@@H]3[C@H](C#N)N[C@H]3CO)cc2)c1
5. C[C@H]1CN([C@@H](C)CO)C(=O)c2c(c3ccccc3n2C)-c2ccccc2CO[C@@H]1CN(C)Cc1ccc2c(c1)OCCN2C
6. O=C(CC1CC1)N[C@@H]1C[C@@H]2O[C@H](CO)CC[C@@H]2O[C@@H]1CCc1ccc(C#Cc2ccccc2)cc1
7. C[C@@H]1CN([C@H](C)CO)S(=O)(=O)c2ccc(C3=CCCC3)cc2O[C@H]1CN(C)C(=O)Nc1ccc2c(c1)OCO2
8. C/C=C/c1ccc([C@@H]2[C@H](CO)N(C(C)=O)[C@H]2CN(CC)C(=O)CN(C)C)cc1

Solution:
1. -2.35% (inactive)
2. -19.2% (inactive)
3. -3.4% (inactive)
4. -230% (inactive)
5. -18% (inactive)
6. -44% (inactive)
7. 8.58% (inactive)
8. 9.68% (inactive)
